# EC50 annotations
- System: Human immunodeficiency virus 1
- Protocol details: Antiviral activity against HIV1 IIIB harboring E138K mutant infected in MT4 cells assessed as reduction in virus induced cytopathic effect incubated for 5 days by MTT method
- Type: functional, organism-based
- Measurement context: Human immunodeficiency virus 1, IIIB, MT4, 120 h
The reply should be a number in nM, with the unit left off.

Worked examples follow.
Exercise: Look up EC50 for this molecule: `Cc1cc(C#N)cc(C)c1Oc1ccnc(NC2CCN(Cc3cn(Cc4ccc(C(N)=O)cc4)nn3)CC2)n1`
Solution: 14

Exercise: Look up EC50 for this molecule: `Cc1cc(/C=C/C#N)cc(C)c1Oc1ccnc(NC2CCN(Cc3cn(CC(=O)N4CCOCC4)nn3)CC2)n1`
Solution: 10

Exercise: Look up EC50 for this molecule: `Cc1cc(/C=C/C#N)cc(C)c1Oc1ccnc(NC2CCN(Cc3cn(CC(=O)NC4CCOCC4)nn3)CC2)n1`
Solution: 34

***
Exercise: Look up EC50 for this molecule: `Cc1cc(/C=C/C#N)cc(C)c1Oc1nc(NC2CCN(Cc3cn(CC(=O)NC4CCOCC4)nn3)CC2)nc2c1COC2`
Solution: 25

Exercise: Look up EC50 for this molecule: `Cc1cc(C#N)cc(C)c1Oc1ccnc(NC2CCN(Cc3cn(CC(=O)Nc4ccc(S(C)(=O)=O)cc4)nn3)CC2)n1`
Solution: 31

Exercise: Look up EC50 for this molecule: `Cc1cc(/C=C/C#N)cc(C)c1Oc1nc(NC2CCN(Cc3cn(CC(=O)NC4CC4)nn3)CC2)nc2ccccc12`
Solution: 29

Exercise: Look up EC50 for this molecule: `CNC(=O)Cn1cc(CN2CCC(Nc3nc(Oc4c(C)cc(/C=C/C#N)cc4C)c4ccccc4n3)CC2)nn1`
Solution: 13

Exercise: Look up EC50 for this molecule: `Cc1cc(C#N)cc(C)c1Oc1nc(Nc2ccc(C#N)cc2)nc(N)c1Br`
Solution: 4

----------
- Protocol details: Aqueous solubility of compound at pH 2 incubated for 24 hrs under shaking condition by HPLC method
- Assay type: physicochemical
- Measurement context: buffer
Lab note: anything with solubility thermodynamic at 24 h at or over 2000 µg/mL counts as satisfied; the rest go in not satisfied.

Reference set, count: 4
Exercise: Kindly determine if solubility thermodynamic at 24 h recorded for `Cc1cc(/C=C/C#N)cc(C)c1Oc1nc(NC2CCN(Cc3cn(CC(=O)NC4CCOCC4)nn3)CC2)nc2sccc12` is above or exactly 2000 µg/mL.
Solution: not satisfied

Exercise: Kindly determine if solubility thermodynamic at 24 h recorded for `Cc1cc(/C=C/C#N)cc(C)c1Oc1nc(NC2CCN(Cc3cn(CC(N)=O)nn3)CC2)nc2sccc12` is above or exactly 2000 µg/mL.
Solution: not satisfied

Exercise: Kindly determine if solubility thermodynamic at 24 h recorded for `CNC(=O)Cn1cc(CN2CCC(Nc3nc(Oc4c(C)cc(/C=C/C#N)cc4C)c4ccsc4n3)CC2)nn1` is above or exactly 2000 µg/mL.
Solution: not satisfied

Exercise: Kindly determine if solubility thermodynamic at 24 h recorded for `Cc1cc(/C=C/C#N)cc(C)c1Oc1ccnc(NC2CCN(Cc3cn(CC(=O)NC4CC4)nn3)CC2)n1` is above or exactly 2000 µg/mL.
Solution: satisfied

Moving on to the next molecule.
Exercise: Kindly determine if solubility thermodynamic at 24 h recorded for `CCNC(=O)Cn1cc(CN2CCC(Nc3nc(Oc4c(C)cc(/C=C/C#N)cc4C)c4ccsc4n3)CC2)nn1` is above or exactly 2000 µg/mL.
Solution: not satisfied
